- Test system: HOP-62 NSCLC
- assay.name: NCI tumour cell line growth inhibition, 48 h
*1 amine or outer side, *2 acyl side, *3 side chain or, on linkers, in order; H or OH if unused. Where a SMILES comes first, the peptide text is derived from it. [ ]: non-standard residue; d: D form. X33 = C=CCC(O[*:1])C(=O)[*:2]; NMeV = CN[CH](C(=O)O)C(C)C; NMeA = CN[CH](C)C(=O)O; βAla = NCCC(=O)O
Entries and their TGI

molecule	target.of.assay	TGI
C=CCC1OC(=O)CCNC(=O)C(C)N(C)C(=O)C(C(C)C)N(C)C(=O)C(C(C)CC)NC(=O)C2CCCN2C1=O (centres undefined) (cyclo([X33]PI[NMeV][NMeA][βAla]); configuration not given here)	HOP-62 NSCLC	> 100 µM
Cc1ccc(S(=O)(=O)n2c3c(c4ccccc42)CCN2CCC(Br)C[C@@H]32)cc1 (some centres undefined)	HOP-62 NSCLC	28.5 µM
CCc1nnc(-c2nsc3ccccc23)s1	HOP-62 NSCLC	> 100 µM

Kindly state the measured TGI obtained for CCOc1cc2c(cc1O)/C(=N/NS(=O)(=O)c1ccc(C)cc1)C[C@@H]1[C@@H]2CC[C@]2(C)[C@@H](O)CC[C@@H]12 with HOP-62 NSCLC.
> 100 µM

Query TGI on HOP-62 NSCLC for COc1cc2c3c(n(C)c(=O)c2cc1OC)-c1cc2c(cc1/C3=C\C(N)CN)OCO2 (centres undefined)
8.91 µM

Lab note: need TGI for COc1cc(C2CC(c3ccc(N(C)C)cc3)=NN2C(C)=O)cc(OC)c1OC (centres undefined) on HOP-62 NSCLC, anyone have it?
> 100 µM

Report TGI for CS/C(=N\c1nccs1)NC(=O)c1cccc(Cl)c1 tested on HOP-62 NSCLC.
> 100 µM

Give recorded TGI with HOP-62 NSCLC for the following molecule: O=c1[nH]c(-c2ccc(-c3nc4cc([N+](=O)[O-])ccc4c(=O)[nH]3)cc2)nc2cc([N+](=O)[O-])ccc12
> 100 µM

Look up TGI with HOP-62 NSCLC for this molecule: CC(c1ccccc1)/[N+]([O-])=C/c1ccccc1 (centres undefined)
> 100 µM

All values here come from PubChem BioAssay (NCI).
